The measured values listed here are drawn from PubChem BioAssay AID1825.

- protocol description: IEC-6 cell viability reduction – luminescence, cytotoxicity control for KLF5 inhibitor project, primary screen (AID 1825)
- measurement setup: IEC-6 cytotoxicity, at 5 µM
About 2,300 (0.79%) of roughly 290,000 compounds were called active. Cut-off read from the data, not from the text of the source: active = inhibition above about 22%; inactive = the rest. The list comes from a sample in which actives are over-represented; it also holds close analogues and randomly drawn compounds.
Reply using exactly one outcome from T (active), F (inactive)

input: What did the test return for O=c1ccc2cc(S(=O)(=O)NCCCc3ccccc3)ccc2[nH]1 ?
output: F

input: What did the test return for CCOC(=O)c1c(C)[nH]c2c1-c1ccccc1C(=O)C2=O ?
output: T

input: What did the test return for Cc1cc(C)n2nc(SCC(N)=O)nc2n1 ?
output: F

input: What did the test return for COc1ccccc1N1CC(C(=O)Nc2nnc(SCC(=O)NCC3CCCO3)s2)CC1=O (configuration not stated) ?
output: F

input: What did the test return for CCOc1cccc(-n2nnnc2-c2ccc(OC)cc2)c1 ?
output: T

input: What did the test return for Cc1cccc(Nc2nc(-c3ccccc3)cs2)n1 ?
output: F

input: What did the test return for COC(=O)Nc1nc2ccc(Sc3ccccc3)cc2[nH]1 ?
output: T
